I'd be grateful if you could share measured inhibition in vivo at 50 mg/kg for these entries.
Test system: experimental asthma model (airway resistance)
METHOD: Effect on experimental asthma model in guinea pigs (airway resistance)
Format: in vivo, guinea pigs (male hartley)
SETTINGS: Cavia porcellus, po, 0.5 h, 50 mg/kg oral (TABLE 6)
Field note: include the unit after the figure.

Recorded inhibition in vivo at 50 mg/kg for CC1CCC(Oc2c(O)c(=O)oc3cc(O[C@@H]4O[C@H](CO)[C@@H](O)[C@H](O)[C@H]4O)ccc23)CC1 (some centres unmarked) with experimental asthma model (airway resistance), please?
59.7%

// map C=COc1c(O)c2ccc(O[C@@H]3O[C@H](CO)[C@@H](O)[C@H](O)[C@H]3O)cc2oc1=O to recorded inhibition in vivo at 50 mg/kg (system: experimental asthma model (airway resistance))
65.1%

For experimental asthma model (airway resistance), provide inhibition in vivo at 50 mg/kg of CC(C)=CCC/C(C)=C/COc1c(O)c2ccc(O[C@@H]3O[C@H](CO)[C@H](O)[C@H](O)[C@H]3O)cc2oc1=O please.
63.2%

Short answer please: inhibition in vivo at 50 mg/kg, experimental asthma model (airway resistance), entry O=c1oc2cc(O[C@H]3O[C@H](CO)[C@@H](O)[C@H](O)[C@@H]3O)ccc2c(OCc2ccccc2)c1O
45.1%

Recall the recorded inhibition in vivo at 50 mg/kg for CC1CCC(Oc2c(O)c(=O)oc3cc(O[C@H]4O[C@H](CO)[C@@H](O)[C@H](O)[C@@H]4O)ccc23)CC1 (some centres unmarked) with experimental asthma model (airway resistance) and state it.
51.2%

Find inhibition in vivo at 50 mg/kg (experimental asthma model (airway resistance)) for the entry C=COc1c(O)c2ccc(O[C@H]3O[C@H](CO)[C@@H](O)[C@H](O)[C@@H]3O)cc2oc1=O
59.3%

Form field - read-out: inhibition in vivo at 50 mg/kg; system: experimental asthma model (airway resistance); submitted item: CCCCCCOc1c(O)c(=O)oc2cc(O[C@H]3O[C@H](CO)[C@@H](O)[C@H](O)[C@@H]3O)ccc12
55.4%

Give experimental asthma model (airway resistance) inhibition in vivo at 50 mg/kg for CCCCOc1c(OC(=O)CC)c(=O)oc2cc(O[C@@H]3O[C@H](COC(C)=O)[C@@H](OC(C)=O)[C@H](OC(C)=O)[C@H]3OC(C)=O)ccc12
39.2%

Please tell me: inhibition in vivo at 50 mg/kg of COc1c(O)c(=O)oc2cc(O[C@H]3O[C@H](CO)[C@@H](O)[C@H](O)[C@@H]3O)ccc12 , system experimental asthma model (airway resistance)?
42.5%

Record CC(C)=CCC/C(C)=C/COc1c(O)c2ccc(O[C@H]3O[C@H](CO)[C@@H](O)[C@H](O)[C@@H]3O)cc2oc1=O : what is its inhibition in vivo at 50 mg/kg with experimental asthma model (airway resistance)?
63.2%

Any idea what inhibition in vivo at 50 mg/kg came out for CC(C)Oc1c(O)c(=O)oc2cc(O[C@@H]3O[C@H](CO)[C@@H](O)[C@H](O)[C@H]3O)ccc12 on experimental asthma model (airway resistance)?
56.6%

// lookup inhibition in vivo at 50 mg/kg | system=experimental asthma model (airway resistance) | key= O=c1oc2cc(O[C@H]3O[C@H](CO)[C@@H](O)[C@H](O)[C@@H]3O)ccc2c(O)c1O
45.2%

API: value(readout=inhibition in vivo at 50 mg/kg, system=experimental asthma model (airway resistance)) for record O=c1oc2cc(O[C@@H]3O[C@H](CO)[C@@H](O)[C@H](O)[C@H]3O)ccc2c(O)c1O
50.1%

Give inhibition in vivo at 50 mg/kg (experimental asthma model (airway resistance)) of the following compound: CCCCCCOc1c(O)c(=O)oc2cc(O[C@@H]3O[C@H](CO)[C@H](O)[C@H](O)[C@H]3O)ccc12
63.1%

----------
Test system: experimental asthma model (airway resistance)
METHOD: Effect on experimental asthma model in guinea pigs (airway resistance)
Type: in vivo, guinea pigs (male hartley)
SETTINGS: Cavia porcellus, po, 0.5 h, 50 mg/kg oral (TABLE 6)
inhibition in vivo at 50 mg/kg of 60% or higher: Condition met. Under 60%: Condition not met.

Given O=c1oc2cc(O[C@@H]3O[C@H](CO)[C@@H](O)[C@H](O)[C@H]3O)ccc2c(OCc2ccccc2)c1O , state whether its inhibition in vivo at 50 mg/kg is at least 60%.
Condition not met

Please indicate if the recorded inhibition in vivo at 50 mg/kg for CCCCCCCCCCCCOc1c(O)c2ccc(O[C@H]3O[C@H](CO)[C@@H](O)[C@H](O)[C@@H]3O)cc2oc1=O meets or exceeds 60%.
Condition not met

Reported inhibition in vivo at 50 mg/kg at or above 60%? COc1c(O)c(=O)oc2cc(O[C@@H]3O[C@H](CO)[C@@H](O)[C@H](O)[C@H]3O)ccc12
Condition not met

Entry CCCCCCCCCCOc1c(O)c2ccc(O[C@@H]3O[C@H](CO)[C@H](O)[C@H](O)[C@H]3O)cc2oc1=O : is its inhibition in vivo at 50 mg/kg no less than 60%?
Condition met

Test whether the molecule COc1c(O)c2ccc(O[C@@H]3O[C@H](CO)[C@@H](O)[C@H](O)[C@H]3O)cc2oc1=O records inhibition in vivo at 50 mg/kg of 60% or higher.
Condition met

Is inhibition in vivo at 50 mg/kg for CCCCCCCCOc1c(O)c(=O)oc2cc(O[C@H]3O[C@H](CO)[C@@H](O)[C@H](O)[C@@H]3O)ccc12 at or above 60%?
Condition not met

Please indicate if the recorded inhibition in vivo at 50 mg/kg for CCC=CCCOc1c(O)c2ccc(O[C@@H]3O[C@H](CO)[C@H](O)[C@H](O)[C@H]3O)cc2oc1=O meets or exceeds 60%.
Condition met

Can C=COc1c(O)c(=O)oc2cc(O[C@H]3O[C@H](CO)[C@@H](O)[C@H](O)[C@@H]3O)ccc12 be said to have inhibition in vivo at 50 mg/kg at or above 60%?
Condition not met

API: above_or_equal(metric=inhibition in vivo at 50 mg/kg, cutoff=60%) for item CCCCCCCCOc1c(O)c2ccc(O[C@@H]3O[C@H](CO)[C@@H](O)[C@H](O)[C@H]3O)cc2oc1=O
Condition met

Form field: inhibition in vivo at 50 mg/kg at least 60%? Entry: CCCCCCCCCCCCOc1c(O)c(=O)oc2cc(O[C@H]3O[C@H](CO)[C@@H](O)[C@H](O)[C@@H]3O)ccc12
Condition not met

Decide: is the reported value of inhibition in vivo at 50 mg/kg for CCCCCCCCOc1c(O)c2ccc(O[C@H]3O[C@H](CO)[C@@H](O)[C@H](O)[C@@H]3O)cc2oc1=O equal to or greater than 60%?
Condition not met

Can CC(C)Oc1c(O)c(=O)oc2cc(O[C@H]3O[C@H](CO)[C@@H](O)[C@H](O)[C@@H]3O)ccc12 be said to have inhibition in vivo at 50 mg/kg at or above 60%?
Condition not met

Is inhibition in vivo at 50 mg/kg at least 60%? Consider O=c1oc2cc(O[C@H]3O[C@H](CO)[C@@H](O)[C@H](O)[C@@H]3O)ccc2c(O)c1OCc1ccccc1
Condition not met

Decide: inhibition in vivo at 50 mg/kg of CCCCCCOc1c(O)c2ccc(O[C@H]3O[C@H](CO)[C@@H](O)[C@H](O)[C@@H]3O)cc2oc1=O >= 60%?
Condition not met

Could you tell me if the measured inhibition in vivo at 50 mg/kg of CC1CCC(Oc2c(O)c3ccc(O[C@@H]4O[C@H](CO)[C@@H](O)[C@H](O)[C@H]4O)cc3oc2=O)CC1 (stereo partly drawn) reaches 60% or more?
Condition met

Hi, just wondering whether CCCCCCCCOc1c(OCc2ccccc2)c2ccc(O[C@@H]3O[C@H](COCc4ccccc4)[C@@H](OCc4ccccc4)[C@H](OCc4ccccc4)[C@H]3OCc3ccccc3)cc2oc1=O shows inhibition in vivo at 50 mg/kg of 60% or higher.
Condition not met

Does the reported inhibition in vivo at 50 mg/kg for CCC=CCCOc1c(O)c(=O)oc2cc(O[C@@H]3O[C@H](CO)[C@@H](O)[C@H](O)[C@H]3O)ccc12 fall at or above the 60% mark?
Condition met

Does the reported inhibition in vivo at 50 mg/kg for CC1CCC(Oc2c(O)c3ccc(O[C@@H]4O[C@H](CO)[C@H](O)[C@H](O)[C@H]4O)cc3oc2=O)CC1 (stereo partly drawn) fall at or above the 60% mark?
Condition met

Determine whether measured inhibition in vivo at 50 mg/kg meets or exceeds 60% for CCCCOc1c(O)c2ccc(O[C@@H]3O[C@H](CO)[C@@H](O)[C@H](O)[C@H]3O)cc2oc1=O
Condition met

Identify whether the reported inhibition in vivo at 50 mg/kg of the following molecule is 60% or greater: CC(C)=CCC/C(C)=C/COc1c(O)c(=O)oc2cc(O[C@@H]3O[C@H](CO)[C@@H](O)[C@H](O)[C@H]3O)ccc12
Condition not met

Record C=COc1c(O)c(=O)oc2cc(O[C@@H]3O[C@H](CO)[C@@H](O)[C@H](O)[C@H]3O)ccc12 ; criterion: inhibition in vivo at 50 mg/kg no lower than 60%. Met?
Condition not met

hey, is inhibition in vivo at 50 mg/kg for this one >= 60%? CCCCCCCCCCOc1c(O)c2ccc(O[C@@H]3O[C@H](CO)[C@@H](O)[C@H](O)[C@H]3O)cc2oc1=O
Condition met

hey, is inhibition in vivo at 50 mg/kg for this one >= 60%? CC(C)Oc1c(O)c2ccc(O[C@@H]3O[C@H](CO)[C@@H](O)[C@H](O)[C@H]3O)cc2oc1=O
Condition met
